systemName: soluble recombinant integrin αIIbβ3, P08514;P05106
measurementDescription: ELISA-type binding assay (OD450)
protocolConditions: chain shown with the change; CD62P 50 µg/ml; 1 mM Mn2+; parent: est. 0.54; read off a plot
observedProperty: response (OD450)
Express the result in OD450 but write the number alone.

• CD62P (P-selectin) lectin domain (residues 1–117), wild type K58E (protein) WTYHYSTKAYSWNISRKYCQNRYTDLVAIQNKNEIDYLNKVLPYYSSYYWIGIRKNNETWTWVGTKKALTNEAENWADNEPNNKRNNEDCVEIYIKSPSAPGKWNDEHCLKKKHALC = 0.27
• CD62P (P-selectin) lectin domain (residues 1–117), wild type K66E; K67E (protein) WTYHYSTKAYSWNISRKYCQNRYTDLVAIQNKNEIDYLNKVLPYYSSYYWIGIRKNNKTWTWVGTEEALTNEAENWADNEPNNKRNNEDCVEIYIKSPSAPGKWNDEHCLKKKHALC = 0.3
• CD62P (P-selectin) lectin domain (residues 1–117), wild type K84E; R85E (protein) WTYHYSTKAYSWNISRKYCQNRYTDLVAIQNKNEIDYLNKVLPYYSSYYWIGIRKNNKTWTWVGTKKALTNEAENWADNEPNNEENNEDCVEIYIKSPSAPGKWNDEHCLKKKHALC = 0.19

Then this binder:
Q: What measured response goes with CD62P (P-selectin) lectin domain (residues 1–117), wild type R16E; K17E (protein) WTYHYSTKAYSWNISEEYCQNRYTDLVAIQNKNEIDYLNKVLPYYSSYYWIGIRKNNKTWTWVGTKKALTNEAENWADNEPNNKRNNEDCVEIYIKSPSAPGKWNDEHCLKKKHALC ?
Ans: 0.12
